- Test system: OVCAR-4 ovarian
- PROCEDURE SUMMARY: NCI-60 one-dose screen, 48 h (100 = growth as untreated, 0 = no growth, -100 = all killed)
- CONDITION SET: 10 µM unless noted
This is part of a sample that, as a whole, favours compounds with a hit. Of some 83,000 tested, about 20% had one in any assay.
growth below 80% gives -1; growth at or above it gives 1.

Sample answers from the record:
• Cc1cc(C#Cc2ccc(C(C)(C)C)cc2)ccc1-n1c(/C=C/c2c(Cl)cccc2Cl)nc2ccccc2c1=O = 1
• CN1C(=O)C(C(=O)/C=C/c2ccccc2C(=O)O)C(=O)N(C)C1=O = 1
• CC(C)CCSc1nc(-c2ccc(F)cc2)c(C#N)c(N2CCCCC2)n1 = 1
• COc1ccccc1/C=N\Nc1ccc([N+](=O)[O-])cn1 = 1
• CCCCOc1nc2ccc(C)cc2cc1/C=C/C(=O)/C=C(O)/C=C/c1cc2cc(C)ccc2nc1OCCCC = 1
• c1csc(-c2cnc3nonc3n2)c1 = 1
• O=C(O)CSc1ccc(NCc2oc(CO)cc(=O)c2O)cc1 = 1
• COc1cc(OC)c(Cl)cc1N = 1

Could you verify whether the entry CCN(C(=O)CCl)C(C)(C)C(SSSC(c1ccc(Cl)cc1)C(C)(C)N(CC)C(=O)CCl)c1ccc(Cl)cc1 (stereo not given) shows growth of no less than 80%?
-1

Please check the record Oc1ccccc1-c1nnc(COc2ccc(Cl)cc2Cl)o1 and state if its growth is at or above 80%.
-1

// inclusive: growth at least 80%? input: COc1ccc([C@H]2c3[nH]c4ccccc4c3C[C@H]3C(=O)N(CCCCCCC(=O)NO)CC(=O)N23)cc1
-1

Is the recorded value of growth equal to or greater than 80% for this compound? COc1cc(NC(=O)CSc2nc3ccc(Cl)cc3c(=O)n2-c2ccccc2)cc(OC)c1OC
1

Exam item: decide whether the reported growth for O=C1/C(=C/c2ccccc2)SC(=Nc2ccccc2)N1Nc1ccccc1 is at least 80%.
-1

Check the entry CC(C)[C@@H]1C=C2CC[C@H]3[C@](C)(CN)CCC[C@]3(C)[C@H]2CC1 : does growth equal or exceed 80%?
-1

Kindly determine if growth recorded for FC(F)(F)c1cc(-c2nnc3n2N=C(Cl)CS3)cc(C(F)(F)F)c1 is above or exactly 80%.
1

Is it the case that O=C(O)c1cc2cc(OCc3ccccc3)ccc2[nH]1 has growth reaching or exceeding 80%?
1

###

We begin with a simple list: items and their reported growth.
- Test system: PC-3 prostate
- PROCEDURE SUMMARY: NCI-60 one-dose screen, 48 h (100 = growth as untreated, 0 = no growth, -100 = all killed)
- CONDITION SET: 10 µM unless noted
This is part of a sample that, as a whole, favours compounds with a hit. Of some 83,000 tested, about 20% had one in any assay.
Please give a number only; it is taken to be in %.

Examples from the recorded data:
• CCOC(=O)Cc1cc(Br)c(OCc2ccccc2)c(Br)c1 = 84.1
• CCN(CC)Cc1cc(Nc2ccnc3ccc(OC)cc23)ccc1O = 39.8
• CCC1=CC2CN(C1)Cc1c([nH]c3ccccc13)[C@@](C(=O)OC)(c1cc3c(cc1OC)N(C)[C@H]1[C@@](O)(C(=O)OC)[C@H](OC(C)=O)[C@]4(CC)C=CCN5CC[C@]31[C@@H]54)C2 (stereo not given in full) = 34.5

Query for PC-3 prostate: what growth does the record show for CC(C)c1ccc2c(c1)CCC1C2CCCC1(C)NCc1ccccc1 (stereo not given) ?
85.4

API: value(readout=growth, system=PC-3 prostate) for record CS(=O)(=O)c1ccc(C(=O)N/N=C/c2ccccc2Cl)cc1
99

Query for PC-3 prostate: what growth does the record show for N/N=C(\C(=N\N)c1ccccc1)c1ccccc1 ?
88.7

Provide value of growth for this record tested with PC-3 prostate: N#Cc1ccc(-c2ccc(-c3cccs3)o2)cc1F
87.5

Form: Entry = Oc1ccc(-c2nc3ccccc3s2)cc1CN(Cc1ccccn1)Cc1ccccn1 | System = PC-3 prostate | growth = ____
30.3

For the record CC(C)OC1OC(OC(C)C)C(OC(C)C)OC1OC(C)C (stereo not given) , what value of growth is listed for PC-3 prostate?
91.8

Missing value: growth, PC-3 prostate, entry O=C(Nc1cccc(C2=NCCN2)c1)c1ccc(N=Nc2ccc(C(=O)Nc3cccc(C4=NCCN4)c3)cc2)cc1 . Fill in?
63.4

Give growth (PC-3 prostate) of the following compound: N=C(N)c1ccc(NCCNc2ccc(C(=N)N)cc2)cc1
123

###

- Tested on: MCF7 breast
- PROCEDURE SUMMARY: NCI-60 one-dose screen, 48 h (100 = growth as untreated, 0 = no growth, -100 = all killed)
- CONDITION SET: 10 µM unless noted
This is part of a sample that, as a whole, favours compounds with a hit. Of some 83,000 tested, about 20% had one in any assay.
growth under 80% gets Met, anything at or over 80% gets Not met.

Consider the compound O=C(N/N=C/c1ccccc1O)c1ccncc1 . Is its growth strictly less than 80%?
Met

Here's an entry: COc1ccc2[nH]cc(C3(c4c[nH]c5ccc(OC)cc45)C(=O)Nc4ccc(Cl)cc43)c2c1 . Is its growth below 80%?
Met

Find out if reported growth for NC(CCC(=O)NC(CS)C(=O)NCC(=O)O)C(=O)O (stereo unspecified) is less than 80%
Not met

Does this compound meet the criterion growth < 80%? Clc1ccc(-c2cnc3nonc3n2)s1
Met

Strictly below 80%: is that where growth of O=C(Nc1ccccc1)c1cc2ccccc2s1 sits?
Met

I wonder whether O=C(Nc1cccc(C2=NCCN2)c1)c1ccc(N=Nc2ccc(C(=O)Nc3cccc(C4=NCCN4)c3)cc2)cc1 has growth below 80%. Can you tell?
Met

For this compound, is growth lower than 80%? COc1cc(NC(=O)CSc2nc3ccc(Cl)cc3c(=O)n2-c2ccccc2)cc(OC)c1OC
Not met

Bench note: check whether C[Si](C)(C)C(c1ccccc1)c1ccccc1 shows growth below 80%
Not met

Decide: growth of O=c1c2cc(Br)cc(Br)c2nc(-c2ccc(Cl)cc2)n1/N=C/c1cccc(F)c1 strictly below 80%?
Met

###

- System: NCI-H23 lung
- PROCEDURE SUMMARY: NCI-60 one-dose screen, 48 h
- CONDITION SET: 10 µM unless noted
This is part of a sample that, as a whole, favours compounds with a hit. Of some 83,000 tested, about 20% had one in any assay. The source made the active and inactive calls. How the source made its calls: active means growth percent below 10; inactive means the rest.
I would appreciate it if you answered using one of these outcomes: 1 (yes) = active, 0 (no) = inactive

- Clc1ccc(-c2cnc3c(-c4ccnc(N5CCNCC5)c4)cnn3c2)cc1: 1 (yes)
- COc1ccc(C(=O)OC2C(OC3C(O)COC(O[C@H]4C[C@H]5[C@@H]6CC=C7C[C@@H](O)CC[C@]7(C)[C@H]6CC[C@]5(C)[C@H]4[C@H](C)C(=O)CCC(C)C)C3OC(C)=O)OCC(O)C2O)cc1 (some centres undefined): 1 (yes)

# fetch the recorded call for CCSCC1CC(O)(c2ccccc2)C(c2ccccc2)C(c2ccc(F)cc2)O1 (centres undefined) here
1 (yes)

Just curious, what result did Cc1cc([N+](=O)[O-])c(C)cc1N get here?
0 (no)

###

- System: HS 578T breast
- PROCEDURE SUMMARY: NCI-60 one-dose screen, 48 h (100 = growth as untreated, 0 = no growth, -100 = all killed)
- CONDITION SET: 10 µM unless noted
This is part of a sample that, as a whole, favours compounds with a hit. Of some 83,000 tested, about 20% had one in any assay.
Sorting guide: entries reporting growth beneath 90% go in the 1.0 pile, the rest go in the 0.0 pile.

Worked set:
- COc1ccc(-c2cc(-c3ccc(OC)cc3)c3sc(=O)[nH]c3n2)cc1: 1.0
- COc1ccc(-c2cc(C(=O)Nc3ccc(Br)cc3)nc3[nH]c(=O)sc23)cc1: 1.0
- CC(C)(CCc1ccccn1)C(=O)CCCc1ccccn1: 0.0
- CCCCCCCCN(CCCCCCCC)C(=O)CCl: 1.0
- CCCCCCCCCCCCCCCC1=NC(C)(C)CN1C(C)C: 1.0

Dear colleague, could you confirm whether growth of CC(=O)O[C@@H]1CC2C(C)(C)CCCC2(C)C2=C1C(=O)C(C(C)C)=CC2=O (stereo not given in full) falls below 90%? Thanks.
1.0

Decide: growth of NC(CCC(=O)NC(CS)C(=O)NCC(=O)O)C(=O)O (stereo not given) strictly below 90%?
0.0

Take the compound COc1ccc(/C=C/C(=O)CCC(=O)O)cc1OC and say whether its growth is less than 90%.
0.0

Please check: growth for COc1ccc(C(=O)OC2C(OC3C(O)COC(O[C@H]4C[C@H]5[C@@H]6CC=C7C[C@@H](O)CC[C@]7(C)[C@H]6CC[C@]5(C)[C@H]4[C@H](C)C(=O)CCC(C)C)C3OC(C)=O)OCC(O)C2O)cc1 (stereo not given in full) , strictly under 90% or not?
1.0
